Each entry below carries its recorded EC50.
biological target: DCAF15/RBM39 (Homo sapiens, UniProt Q14498+Q66K64); experiment: AlphaLISA compound-induced DCAF15-RBM39 ternary complex formation; settings: His-tagged DCAF15 complex and biotin-carrying RBM39
ASSAY_READOUT: EC50

>>> reading("O=S(=O)(Nc1ccc(Cl)c2c(Cl)c[nH]c12)c1cccc(O[C@@H]2C[C@@H]3C[C@@H]3C2)c1")
"1 to 10 µM"
>>> reading("O=C(NC[C@H]1Cc2ccccc21)c1cccc(S(=O)(=O)Nc2ccc(Cl)c3c(Cl)c[nH]c23)c1F")
"1 to 10 µM"
>>> reading("O=C(NCCCc1ccc(Cl)cc1)c1ccc(S(=O)(=O)Nc2ccc(Cl)c3c(Cl)c[nH]c23)c(F)c1")
"1 to 10 µM"
>>> reading("O=C(OCc1ccccc1)N1C[C@@H]2[C@@H](COc3ccc(S(=O)(=O)Nc4ccc(Cl)c5c(Cl)c[nH]c45)cc3)[C@@H]2C1")
"> 100 µM"

Source: patent US20240327351A1
